The following binders are listed with their measured D.O 450 nm values.
tested.on: T1, rmIGF-1R protein (murine IGF-1R extracellular domain, R&D Systems cat 6630-GR/Fc) (murine, UniProt Q60751 31-936)
T1 construct: extracellular domain; Bought reagent; not shown: Fc part implied by the catalogue number /Fc; not described
assay.summary: ELISA on coated rmIGF-1R, SNT at 5 µg/ml
Experimental: In addition three ELISAs were performed (either before or after cloning) to study the binding of antibodies on the recombinant human (hIGF-1R) and murine (mIGF-1R) proteins, and on the recombinant human Insulin Receptor (hIR) protein. […] After a 10 min incubation time at room temperature, the reaction was stopped using 1 M sulfuric acid and the optical density at 450 nm is measured.
Give just the number in OD 450 nm; leave the unit off.

Solved entries:
>>> observed_measurement("murine antibody 208F2 (hybridoma CNCM I-4757) (antibody, V domains shown, also called m208F2) VH: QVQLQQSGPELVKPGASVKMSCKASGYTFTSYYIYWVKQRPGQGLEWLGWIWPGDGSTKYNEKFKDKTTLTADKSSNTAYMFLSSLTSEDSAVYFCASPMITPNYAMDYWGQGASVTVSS VL: DIQMTQTTSSLSASLGDRVTISCRASQDISKYLNWYQQQPDGTIKLLIYYTSRLHSGVPSRFSGRGSGTDYSLTISNVEQEDIATYFCQQGSTLPYTFGGGTKLEIK")
0.099
>>> observed_measurement("murine antibody 214F8 (hybridoma CNCM I-4775) (antibody, V domains shown, also called m214F8) VH: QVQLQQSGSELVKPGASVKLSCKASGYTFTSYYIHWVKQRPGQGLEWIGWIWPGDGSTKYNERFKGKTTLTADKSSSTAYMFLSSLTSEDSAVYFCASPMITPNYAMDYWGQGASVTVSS VL: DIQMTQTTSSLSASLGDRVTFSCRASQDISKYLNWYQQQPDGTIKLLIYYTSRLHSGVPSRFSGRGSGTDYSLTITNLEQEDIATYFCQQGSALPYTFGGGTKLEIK")
0.102

Next:
Recorded result, murine antibody 212A11 (hybridoma CNCM I-4773) (antibody, V domains shown, also called m212A11) VH: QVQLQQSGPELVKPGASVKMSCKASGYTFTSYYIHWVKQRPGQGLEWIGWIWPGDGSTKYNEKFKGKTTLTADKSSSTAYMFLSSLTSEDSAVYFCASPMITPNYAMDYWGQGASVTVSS VL: DIQMTQTTSSLSASLGDRVTISCRASQDINKYLNWYQQQPDGTVKLLIYYTSRLHSGVPSRFSGRGSGTDYSLTISNLEQEDIATYFCQQGSTLPYTFGGGTKLEIK , D.O 450 nm: 0.102
